Provenance of the data: ChEMBL document CHEMBL4364254

Target Under Test: Endothelin-1 receptor (Homo sapiens)
Sequence (P25101 whole entry): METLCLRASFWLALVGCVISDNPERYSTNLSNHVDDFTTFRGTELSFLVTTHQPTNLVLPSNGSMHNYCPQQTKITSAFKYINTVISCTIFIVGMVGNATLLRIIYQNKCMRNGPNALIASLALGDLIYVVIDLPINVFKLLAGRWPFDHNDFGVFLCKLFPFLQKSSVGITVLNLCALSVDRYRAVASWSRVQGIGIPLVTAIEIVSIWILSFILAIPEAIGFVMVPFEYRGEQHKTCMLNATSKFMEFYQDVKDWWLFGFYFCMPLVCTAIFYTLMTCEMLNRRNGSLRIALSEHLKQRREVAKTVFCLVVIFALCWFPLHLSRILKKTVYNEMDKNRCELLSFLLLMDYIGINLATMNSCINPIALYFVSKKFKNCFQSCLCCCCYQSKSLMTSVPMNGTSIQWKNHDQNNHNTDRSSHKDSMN
Assay Protocol: Displacement of [125I]endothelin-1 from recombinant human ETA receptor after 120 mins by scintillation counting analysis
Result Type: IC50

I'd like to know its IC50. The compound in question is O=C(Nc1ccc(OC(F)F)nc1)NC1CCN(c2ncnc3c2nc(-c2ccccc2Cl)n3-c2ccc(Cl)cc2)CC1 > 10 µM

====

Target Under Test: Glucocorticoid receptor (Homo sapiens, UniProt P04150)
Sequence (P04150 whole entry): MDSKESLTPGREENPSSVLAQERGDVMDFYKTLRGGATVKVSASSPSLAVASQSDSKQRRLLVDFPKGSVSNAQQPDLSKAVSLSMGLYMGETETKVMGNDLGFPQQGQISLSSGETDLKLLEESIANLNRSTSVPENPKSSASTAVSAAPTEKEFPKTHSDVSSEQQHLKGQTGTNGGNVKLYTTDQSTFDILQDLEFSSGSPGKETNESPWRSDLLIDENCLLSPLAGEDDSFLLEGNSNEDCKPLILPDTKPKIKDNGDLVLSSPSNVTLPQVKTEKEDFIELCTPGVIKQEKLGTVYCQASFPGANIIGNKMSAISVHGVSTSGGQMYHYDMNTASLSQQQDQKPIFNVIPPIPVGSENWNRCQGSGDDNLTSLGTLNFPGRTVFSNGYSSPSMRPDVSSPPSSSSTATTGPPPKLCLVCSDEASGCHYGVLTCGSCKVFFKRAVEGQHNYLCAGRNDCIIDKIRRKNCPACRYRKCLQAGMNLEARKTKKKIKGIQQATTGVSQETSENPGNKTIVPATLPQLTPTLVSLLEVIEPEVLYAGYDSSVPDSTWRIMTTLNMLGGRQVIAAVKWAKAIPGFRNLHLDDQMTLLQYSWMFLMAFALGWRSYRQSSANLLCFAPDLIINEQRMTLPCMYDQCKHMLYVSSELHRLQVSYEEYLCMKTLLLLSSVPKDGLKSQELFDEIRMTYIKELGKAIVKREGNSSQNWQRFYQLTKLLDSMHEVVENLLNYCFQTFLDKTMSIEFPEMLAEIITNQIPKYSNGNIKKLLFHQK
Assay Protocol: Displacement of [3H]dexamethasone from recombinant human GR after 360 mins by scintillation counting analysis
pIC50: −log10 of the molar value.
Result Type: pIC50

API: value(readout= pIC50, system= Glucocorticoid receptor (Homo sapiens, UniProt P04150), query= O=C(Nc1ccc(OC(F)F)nc1)NC1CCN(c2ncnc3c2nc(-c2ccccc2Cl)n3-c2ccc(Cl)cc2)CC1 ) < 5.00

====

pKi: −log10 of the molar value.
Cannabinoid receptor 2 (Homo sapiens) pKi data
Sequence (P34972 whole entry): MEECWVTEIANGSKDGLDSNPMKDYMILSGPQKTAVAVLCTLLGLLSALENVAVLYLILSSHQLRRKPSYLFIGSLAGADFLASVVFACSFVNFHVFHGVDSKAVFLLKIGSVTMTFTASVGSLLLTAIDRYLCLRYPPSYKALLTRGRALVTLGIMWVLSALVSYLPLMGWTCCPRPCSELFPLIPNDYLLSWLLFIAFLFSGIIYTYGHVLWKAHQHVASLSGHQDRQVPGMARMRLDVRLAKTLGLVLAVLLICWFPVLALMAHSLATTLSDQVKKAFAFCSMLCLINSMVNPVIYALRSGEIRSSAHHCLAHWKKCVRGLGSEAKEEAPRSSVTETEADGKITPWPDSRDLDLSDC

* O=C(NC1CCCCC1)NC1CCN(c2ncnc3c2nc(-c2ccccc2Cl)n3-c2ccc(Cl)cc2)CC1 | 5.34
* CC1(NC(=O)Nc2ccccc2F)CCN(c2ncnc3c2nc(-c2ccccc2Cl)n3-c2ccc(Cl)cc2)CC1 | < 5.00
* CC(C)CN(C)C(=O)NC1CCN(c2ncnc3c2nc(-c2ccccc2Cl)n3-c2ccc(Cl)cc2)CC1 | 6.22
* O=C(NCC1CCC(F)(F)CC1)NC1CCN(c2ncnc3c2nc(-c2ccccc2Cl)n3-c2ccc(Cl)cc2)CC1 | < 5.00
* CC1(NC(=O)NC2CCCCC2)CCN(c2ncnc3c2nc(-c2ccccc2Cl)n3-c2ccc(Cl)cc2)CC1 | < 5.00
* CC1(NC(=O)Nc2ccc(F)cc2F)CCN(c2ncnc3c2nc(-c2ccccc2Cl)n3-c2ccc(Cl)cc2)CC1 | < 5.00

Fill in the blank: the reported pKi of O=C(NC1CCCC1)NC1CCN(c2ncnc3c2nc(-c2ccccc2Cl)n3-c2ccc(Cl)cc2)CC1 is ____. < 5.00

# lookup: pKi of O=C(NCC1CCCC1)NC1CCN(c2ncnc3c2nc(-c2ccccc2Cl)n3-c2ccc(Cl)cc2)CC1 5.49

====

Target Under Test: Androgen receptor (Homo sapiens, UniProt P10275)
Sequence (P10275 whole entry): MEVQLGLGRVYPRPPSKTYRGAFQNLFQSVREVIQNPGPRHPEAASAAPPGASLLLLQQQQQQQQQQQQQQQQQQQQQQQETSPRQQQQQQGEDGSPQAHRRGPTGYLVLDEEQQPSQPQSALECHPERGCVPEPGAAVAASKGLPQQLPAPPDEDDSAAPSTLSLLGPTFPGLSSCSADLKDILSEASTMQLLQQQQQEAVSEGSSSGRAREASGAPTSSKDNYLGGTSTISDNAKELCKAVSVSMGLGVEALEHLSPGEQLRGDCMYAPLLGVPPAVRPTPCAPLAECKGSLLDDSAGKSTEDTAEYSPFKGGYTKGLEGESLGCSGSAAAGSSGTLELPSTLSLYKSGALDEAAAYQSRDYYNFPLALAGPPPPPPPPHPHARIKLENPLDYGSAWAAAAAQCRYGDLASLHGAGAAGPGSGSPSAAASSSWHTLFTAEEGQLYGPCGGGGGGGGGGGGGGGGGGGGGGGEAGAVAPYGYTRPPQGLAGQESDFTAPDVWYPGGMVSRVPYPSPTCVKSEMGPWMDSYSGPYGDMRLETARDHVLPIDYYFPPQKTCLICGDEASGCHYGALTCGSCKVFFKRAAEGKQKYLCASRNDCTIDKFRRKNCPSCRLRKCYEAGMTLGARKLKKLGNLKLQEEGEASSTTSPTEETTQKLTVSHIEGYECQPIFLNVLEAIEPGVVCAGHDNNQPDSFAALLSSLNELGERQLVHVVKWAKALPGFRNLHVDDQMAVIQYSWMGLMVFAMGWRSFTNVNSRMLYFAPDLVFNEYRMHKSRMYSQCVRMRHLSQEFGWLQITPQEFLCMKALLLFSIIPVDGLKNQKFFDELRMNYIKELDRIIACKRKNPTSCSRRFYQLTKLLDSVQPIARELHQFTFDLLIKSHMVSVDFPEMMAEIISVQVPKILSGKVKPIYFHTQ
Assay Protocol: Displacement of [3H]methyltrienolone from recombinant human AR after 1440 mins by scintillation counting analysis
Result Type: EC50

Lookup: EC50 / Androgen receptor (Homo sapiens, UniProt P10275) / O=C(Nc1ccc(OC(F)F)nc1)NC1CCN(c2ncnc3c2nc(-c2ccccc2Cl)n3-c2ccc(Cl)cc2)CC1 > 10 µM

====

Target Under Test: Sodium-dependent dopamine transporter (Homo sapiens, UniProt Q01959)
Sequence (Q01959 whole entry): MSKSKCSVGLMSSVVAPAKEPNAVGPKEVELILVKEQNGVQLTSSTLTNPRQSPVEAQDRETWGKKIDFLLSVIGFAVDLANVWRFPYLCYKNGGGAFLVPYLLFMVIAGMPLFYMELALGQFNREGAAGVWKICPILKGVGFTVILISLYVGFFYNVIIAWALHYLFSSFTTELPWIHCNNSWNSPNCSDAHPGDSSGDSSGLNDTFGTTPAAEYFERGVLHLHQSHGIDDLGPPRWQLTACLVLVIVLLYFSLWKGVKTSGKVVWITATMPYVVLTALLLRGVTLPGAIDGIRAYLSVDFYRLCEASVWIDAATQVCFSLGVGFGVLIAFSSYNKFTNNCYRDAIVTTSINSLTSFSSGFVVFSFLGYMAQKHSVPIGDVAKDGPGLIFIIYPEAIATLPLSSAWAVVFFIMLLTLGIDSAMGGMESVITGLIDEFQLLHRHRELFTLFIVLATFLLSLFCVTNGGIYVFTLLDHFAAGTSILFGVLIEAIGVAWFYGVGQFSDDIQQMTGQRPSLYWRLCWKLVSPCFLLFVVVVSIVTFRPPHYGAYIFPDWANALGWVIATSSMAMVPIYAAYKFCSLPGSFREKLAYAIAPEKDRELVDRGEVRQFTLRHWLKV
Assay Protocol: Displacement of [3H]BTCP from recombinant human dopamine transporter after 120 mins by scintillation counting analysis
Result Type: IC50

Please look up its IC50: O=C(Nc1ccc(OC(F)F)nc1)NC1CCN(c2ncnc3c2nc(-c2ccccc2Cl)n3-c2ccc(Cl)cc2)CC1 > 10 µM

====

Target Under Test: UniProt Q08499
Sequence (Q08499 whole entry): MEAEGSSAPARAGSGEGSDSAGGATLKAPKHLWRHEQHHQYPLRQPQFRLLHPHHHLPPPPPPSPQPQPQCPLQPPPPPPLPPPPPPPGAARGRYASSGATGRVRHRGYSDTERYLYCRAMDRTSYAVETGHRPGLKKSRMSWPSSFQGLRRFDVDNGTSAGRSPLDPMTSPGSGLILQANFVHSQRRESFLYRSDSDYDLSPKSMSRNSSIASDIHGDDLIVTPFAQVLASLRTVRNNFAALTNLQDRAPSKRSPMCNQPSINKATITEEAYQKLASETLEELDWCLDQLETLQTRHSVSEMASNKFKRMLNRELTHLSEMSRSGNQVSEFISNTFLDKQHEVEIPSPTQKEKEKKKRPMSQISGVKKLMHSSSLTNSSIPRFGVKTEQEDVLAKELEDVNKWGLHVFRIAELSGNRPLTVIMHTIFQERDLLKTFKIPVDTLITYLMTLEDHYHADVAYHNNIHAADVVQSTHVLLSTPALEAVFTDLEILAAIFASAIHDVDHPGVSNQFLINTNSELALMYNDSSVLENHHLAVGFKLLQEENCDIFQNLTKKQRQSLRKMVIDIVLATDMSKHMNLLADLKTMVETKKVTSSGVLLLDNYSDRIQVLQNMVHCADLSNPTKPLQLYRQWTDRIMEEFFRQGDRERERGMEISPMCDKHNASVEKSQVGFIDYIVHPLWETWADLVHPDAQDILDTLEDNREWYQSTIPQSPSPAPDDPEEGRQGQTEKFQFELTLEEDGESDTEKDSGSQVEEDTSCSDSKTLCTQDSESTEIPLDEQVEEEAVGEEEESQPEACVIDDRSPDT
Assay Protocol: Activity at human recombinant PDE4D2 using [3H]cAMP as substrate measured after 20 mins by scintillation counting analysis
pEC50: −log10 of the molar value.
Result Type: pEC50

Sample O=C(Nc1ccc(OC(F)F)nc1)NC1CCN(c2ncnc3c2nc(-c2ccccc2Cl)n3-c2ccc(Cl)cc2)CC1 — what was its pEC50? < 5.00
